Measured pKd by item
target: ANX A1 (Homo sapiens); construct: The ANX A1 cDNA fragment, full-length (1–346 a.a.) or deletion mutants; GST (pGEX-6P-1) (N, cleaved yes); assay: Isothermal titration calorimetry (ITC) binding to ANX A1; details: Ca^2+ form of ANX A1, 3 mmol L^-1 CaCl2, ITC, 298 K; read-out: binding affinity (Kd)
Sequence (P04083 whole entry, the tested form may be a part): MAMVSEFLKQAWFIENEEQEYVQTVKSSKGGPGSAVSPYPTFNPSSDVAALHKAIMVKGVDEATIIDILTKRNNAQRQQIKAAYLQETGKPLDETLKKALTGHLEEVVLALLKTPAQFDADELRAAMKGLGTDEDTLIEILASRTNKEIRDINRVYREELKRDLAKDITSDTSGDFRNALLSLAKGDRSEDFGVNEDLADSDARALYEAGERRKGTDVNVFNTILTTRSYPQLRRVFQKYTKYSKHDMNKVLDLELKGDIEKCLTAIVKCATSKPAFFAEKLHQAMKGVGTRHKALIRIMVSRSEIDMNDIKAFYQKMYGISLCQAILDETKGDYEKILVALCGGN
Formally, pKd is defined as -log10 of the concentration c, with c in mol/L.

>  <Compound>
Oc1ccc(C2OCC3C(c4ccc5c(c4)OCO5)OCC23)cc1O (centres unmarked)

>  <Tested system>
ANX A1 (Homo sapiens)

>  <Value kind>
pKd

>  <Recorded number>
5.56

$$$$

Query Oc1ccc(C2OCC3C(c4ccc(O)c(O)c4)OCC23)cc1O (centres unmarked) yields pKd of 5.09

Source: paper PMC7033200
